Experimental details: Cytotoxicity at 100 ug/mL against normal mouse fibroblasts (C3H cells) cells
Type: cell-based
Colony formation values for the compounds below.
Record the value in %, omitting the unit from your answer.

Q: Name the recorded Colony formation of the item CC1OC(c2nc3c(N)cccn3n2)C(O)C(O)C1O (configuration not stated) in your answer.
Result: 115

Q: Name the recorded Colony formation of the item CC1OC(c2nc3c([N+](=O)[O-])cccn3n2)C(O)C(O)C1=O (configuration not stated) in your answer.
Result: 76

---

Experimental details: Cytotoxic dose that inhibit multiplication of normal fibroblast cells (C3H cells)
Type: cell-based
Test conditions: mouse, read-out: CD50 (the source's name)
Assay endpoint: CC50 (µg/mL)
Record the value in µg/mL, omitting the unit from your answer.

* C[C@@H]1O[C@@H](c2nc3c([N+](=O)[O-])cccn3n2)[C@H](O)[C@H](O)[C@@H]1O | 400

In the following, a different compound is considered.
Q: Name the recorded CC50 of the item `C[C@@H]1O[C@@H](c2nc3c([N+](=O)[O-])cccn3n2)[C@H](O)[C@H](O)[C@H]1O` in your answer.
Result: 500
